Assay: Thermodynamic solubility measurement by HPLC in HDAC buffer / DMSO
Assay type: physicochemical
Conditions: 2% DMSO in HDAC buffer, 24.5 °C, aqueous buffer, thermodynamic from solid; 2% DMSO/HDAC, ambient (24-25° C.), 48 hours
Experimental: DHP-1 in up to 20% DMSO/HDAC was insoluble. In brief, HPLC (Agilent 1100 series) was used to perform the test. Calibration curves were established using concentration range covering the estimated solubility's. The samples were then analyzed by a well-calibrated HPLC method. The linearity was measured by R-values at least >0.99. […] The samples were equilibrated at ambient (24-25° C.) for 48 hours and then analyzed by the same HPLC method.
# solubility at 48 h per entry
quantity name: solubility at 48 h

>>> endpoint_value("O=C(O)C1=CN(Cc2ccccc2)C=C(C(=O)O)C1c1ccccc1")
"1740 µg/mL"
>>> endpoint_value("C=CCc1ccc(O)c(-c2ccc(O)c(CC=C)c2)c1 [Honokiol, 5,3′-Diallyl-2,4′-dihydroxybiphenyl, reference compound]")
"41 µg/mL"

* * *

Experiment: Thermodynamic solubility measurement by HPLC in HDAC buffer / DMSO
Format: physicochemical
Details: 10% DMSO in HDAC buffer, 24.5 °C, aqueous with cosolvent or surfactant or cyclodextrin, thermodynamic from solid; 10% DMSO/HDAC, ambient (24-25° C.), 48 hours
Method: DHP-1 in up to 20% DMSO/HDAC was insoluble. In brief, HPLC (Agilent 1100 series) was used to perform the test. Calibration curves were established using concentration range covering the estimated solubility's. The samples were then analyzed by a well-calibrated HPLC method. The linearity was measured by R-values at least >0.99. […] The samples were equilibrated at ambient (24-25° C.) for 48 hours and then analyzed by the same HPLC method.
quantity name: solubility at 48 h

>>> endpoint_value("O=C(O)C1=CN(Cc2ccccc2)C=C(C(=O)O)C1c1ccccc1 [DHP-2]")
"2200 µg/mL"

* * *

Target: Human Sirt3 protein (Homo sapiens)
Construct: hexa-histidine (N); host or cells: E. coli Arctic Express (DE3)
Assay: Binding analysis by microscale thermophoresis (MST)
Settings: 5% DMSO, 25° C., read-out: Kd, binding to the enzyme:NAD+ complex
pKd: −log10 of the molar value.
quantity name: pKd

>>> endpoint_value("C=CCc1ccc(O)c(-c2ccc(O)c(CC=C)c2)c1 [Honokiol, 5,3′-Diallyl-2,4′-dihydroxybiphenyl, reference compound]")
5.78

* * *

Target: Human Sirt3 protein (Homo sapiens, UniProt Q9NTG7)
Construct: hexa-histidine (N); host or cells: E. coli Arctic Express (DE3)
Sequence (Q9NTG7 102-399): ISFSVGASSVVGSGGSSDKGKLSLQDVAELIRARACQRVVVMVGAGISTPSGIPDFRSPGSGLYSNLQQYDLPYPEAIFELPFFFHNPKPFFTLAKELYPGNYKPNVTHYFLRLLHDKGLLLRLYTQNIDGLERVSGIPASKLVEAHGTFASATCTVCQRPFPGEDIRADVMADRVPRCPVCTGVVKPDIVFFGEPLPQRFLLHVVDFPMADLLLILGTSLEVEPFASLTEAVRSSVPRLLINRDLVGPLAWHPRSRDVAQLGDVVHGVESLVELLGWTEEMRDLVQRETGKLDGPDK
Assay: Binding analysis by microscale thermophoresis (MST)
Settings: 5% DMSO, 25° C., read-out: Kd, binding to SIRT3 apoenzyme
pKd: −log10 of the molar value.
quantity name: pKd

>>> endpoint_value("C=CCc1ccc(O)c(-c2ccc(O)c(CC=C)c2)c1 [Honokiol, 5,3′-Diallyl-2,4′-dihydroxybiphenyl, reference compound]")
6.00

Data origin, for the record: patent US11118211B2
